- TARGET_OR_SYSTEM: UniProt:Q8TDR2
- Sequence (Q8TDR2 whole entry, looked up): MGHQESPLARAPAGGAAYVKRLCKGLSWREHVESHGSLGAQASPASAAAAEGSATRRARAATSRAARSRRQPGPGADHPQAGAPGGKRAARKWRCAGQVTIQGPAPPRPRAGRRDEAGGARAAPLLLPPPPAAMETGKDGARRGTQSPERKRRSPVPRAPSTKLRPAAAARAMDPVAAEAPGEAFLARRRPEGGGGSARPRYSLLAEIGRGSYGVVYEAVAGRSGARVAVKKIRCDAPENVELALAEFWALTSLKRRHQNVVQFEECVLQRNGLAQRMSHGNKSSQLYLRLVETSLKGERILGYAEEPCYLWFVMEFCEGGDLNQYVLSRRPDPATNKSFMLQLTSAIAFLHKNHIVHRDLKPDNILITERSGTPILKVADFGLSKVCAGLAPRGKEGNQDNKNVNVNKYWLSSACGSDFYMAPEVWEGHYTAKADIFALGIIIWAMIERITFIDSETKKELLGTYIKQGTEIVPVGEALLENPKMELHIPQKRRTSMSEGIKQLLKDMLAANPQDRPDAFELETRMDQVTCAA
- METHOD: KINOMEscan competition binding
- EXPERIMENTAL_CONTEXT: compound 10.0 µM
# note: exactly 80% is not below, so it is -1; use 1 for kinase still bound, per cent of control strictly under it

Q) Hello, I'm reviewing records and need to know if kinase still bound, per cent of control of `CCN1CCN(Cc2ccc(NC(=O)c3ccc(C)c(/C=C/c4cnc5[nH]ccc5c4OC)c3)cc2C(F)(F)F)CC1` is below 80%. Could you check?
A) 1

Q) Hello, I'm reviewing records and need to know if kinase still bound, per cent of control of COc1cc(C)c(Sc2cnc(NC(=O)c3ccc(CNC(C)C(C)C)cc3)s2)cc1C(=O)N1CCN(C(C)=O)CC1 (configuration not stated) is below 80%. Could you check?
A) -1

Q) Hello, I'm reviewing records and need to know if kinase still bound, per cent of control of `Cc1cn(-c2cc(C(=O)Nc3ccc(C)c(NC(=O)c4ccno4)c3)cc(C(F)(F)F)c2)cn1` is below 80%. Could you check?
A) -1

Q) Hello, I'm reviewing records and need to know if kinase still bound, per cent of control of `N#C/C(=C1/Nc2ccccc2S1)c1ccnc(NCCc2cccnc2)n1` is below 80%. Could you check?
A) -1

Q) Hello, I'm reviewing records and need to know if kinase still bound, per cent of control of `CNC(=O)Nc1ccc(-c2nc(N3CC4CCC(C3)O4)c3cnn(C4CCC5(CC4)OCCO5)c3n2)cc1` is below 80%. Could you check?
A) -1

Q) Hello, I'm reviewing records and need to know if kinase still bound, per cent of control of `COc1cc2ncnc(Nc3cccc(Cl)c3)c2cc1OC` is below 80%. Could you check?
A) 1

Q) Hello, I'm reviewing records and need to know if kinase still bound, per cent of control of `N#Cc1cc(-c2ccnc(Nc3ccc(-n4cnc(-c5cccnc5)n4)cc3)n2)cc(N2CCOCC2)c1` is below 80%. Could you check?
A) 1

Q) Hello, I'm reviewing records and need to know if kinase still bound, per cent of control of `CCCS(=O)(=O)Nc1ccc(F)c(C(=O)c2c[nH]c3ncc(Cl)cc23)c1F` is below 80%. Could you check?
A) -1

Q) Hello, I'm reviewing records and need to know if kinase still bound, per cent of control of `CCc1nc(-c2cccc(C)c2)c(-c2ccnc(NC(=O)c3ccccc3)c2)s1` is below 80%. Could you check?
A) 1

* * *

- TARGET_OR_SYSTEM: NUAK1 (human)
- METHOD: KINOMEscan competition binding
- EXPERIMENTAL_CONTEXT: compound 10.0 µM
In this section, each of the compounds is paired with its reported kinase still bound, per cent of control.
Respond numerically; units are % and should not be typed.

Solved cases (2 shown):
| COMPOUND | kinase still bound, per cent of control / % |
| --- | --- |
| COc1cc2ncnc(Nc3cccc(Cl)c3)c2cc1OC | 98 |
| COc1cc2c(Nc3ccc(NC(=O)c4ccccc4)cc3)ncnc2cc1OCCCN1CCOCC1 | 92 |

Then this compound:
Q) GET /values?readout=kinase still bound, per cent of control&item= `C=CC(=O)Nc1ccc(C(=O)c2sc(Nc3ccc(N4CCN(C)CC4)cc3OC)nc2N)cc1`
A) 100

* * *

- TARGET_OR_SYSTEM: ULK2 (human)
- METHOD: KINOMEscan competition binding
- EXPERIMENTAL_CONTEXT: compound 10.0 µM
EXPERIMENTAL_ENDPOINT: kinase still bound, per cent of control (%)
Respond numerically; units are % and should not be typed.

Solved cases (3 shown):
| COMPOUND | kinase still bound, per cent of control / % |
| --- | --- |
| CCCS(=O)(=O)Nc1ccc(F)c(C(=O)c2c[nH]c3ncc(Cl)cc23)c1F | 60 |
| COc1cc2c(Nc3ccc(NC(=O)c4ccccc4)cc3)ncnc2cc1OCCCN1CCOCC1 | 91 |
| CCN1CCN(Cc2ccc(NC(=O)c3ccc(C)c(/C=C/c4cnc5[nH]ccc5c4OC)c3)cc2C(F)(F)F)CC1 | 35 |

Then this compound:
Q) Provide value of kinase still bound, per cent of control for this record tested with ULK2 (human): COc1cc(C)c(Sc2cnc(NC(=O)c3ccc(CNC(C)C(C)C)cc3)s2)cc1C(=O)N1CCN(C(C)=O)CC1 (centres undefined)
A) 24

Ref: the kinase profiling compilation of Christmann-Franck et al. (2016)
